Recorded GI50, one value per entry.
System: Malme-3M
Assay: NCI tumour cell line growth inhibition, 48 h
The source made the active and inactive calls. Rule as the data show it: active = GI50 up to about 1.1 µM and inactive = higher.

[
  {
    "compound": "C[N+](C)(C)CCC(=O)CC[N+](C)(C)C",
    "assay-system": "Malme-3M",
    "GI50": "19.7 µM (inactive)"
  },
  {
    "compound": "O=[N+]([O-])c1ccc(N2N=C(c3ccc(NCc4nc5ccccc5[nH]4)cc3)CC2c2ccco2)cc1 (stereo not drawn)",
    "assay-system": "Malme-3M",
    "GI50": "28.5 µM (inactive)"
  },
  {
    "compound": "COc1ccc(C2=NNC(=O)c3ccccc3N2c2nc(-c3cccs3)nc3ccc(Br)cc23)cc1",
    "assay-system": "Malme-3M",
    "GI50": "25.2 µM (inactive)"
  },
  {
    "compound": "Cc1cc(=O)n2c3c(c4c(cc13)c(CN(C)C)cc(=O)n4C)OC2",
    "assay-system": "Malme-3M",
    "GI50": "12.4 µM (inactive)"
  },
  {
    "compound": "CCN(CC)CCCN(c1cc(OC)cc2nccnc12)S(=O)(=O)c1ccc(C)cc1",
    "assay-system": "Malme-3M",
    "GI50": "> 100 µM (inactive)"
  },
  {
    "compound": "Cn1c2ccccc2c2ccc3c(c21)C(=O)c1ccccc1C3=O",
    "assay-system": "Malme-3M",
    "GI50": "5.86 µM (inactive)"
  },
  {
    "compound": "COC(=O)[C@@]12C=CC(=O)[C@H]3C[C@@H](C(C(C)C)C1)[C@]32OC (stereo partly drawn)",
    "assay-system": "Malme-3M",
    "GI50": "> 100 µM (inactive)"
  },
  {
    "compound": "C/C(=N\\[N+](C)(C)C)c1ccc(C)c(C)c1",
    "assay-system": "Malme-3M",
    "GI50": "> 10 µM (inactive)"
  }
]

---

System: SK-OV-3
Experiment: NCI tumour cell line growth inhibition, 48 h
Active and inactive are the calls of the source. No stated cut-off is given here; in the data, active = GI50 up to about 1.1 µM and inactive = higher.
Possible outcomes: label 1 = active, label 0 = inactive

[
  {
    "compound": "O=C(CCN1CCCC1)Nc1ccc2sc3ccccc3c(=O)c2n1",
    "class-name": "label 0"
  },
  {
    "compound": "COC(=O)C1=C(C(=O)OC)N(c2ccncc2)C(c2ccco2)=CC1c1ccccc1[N+](=O)[O-] (centres undefined)",
    "class-name": "label 0"
  },
  {
    "compound": "CC1CC(N)=Nc2ccccc2N1 (centres undefined)",
    "class-name": "label 0"
  },
  {
    "compound": "CN1C[C@@H]2CC(=O)CC[C@@H]2C[C@H]1C#N",
    "class-name": "label 0"
  },
  {
    "compound": "COc1cc(C2c3cc4c(cc3OC(NN)C2C)OCO4)cc(OC)c1OC (centres undefined)",
    "class-name": "label 0"
  },
  {
    "compound": "NNC(=O)CNC(=O)c1ccc(Cl)cc1Cl",
    "class-name": "label 0"
  },
  {
    "compound": "NC(=S)c1cccc(C2Nc3ccccc3O2)c1 (centres undefined)",
    "class-name": "label 0"
  },
  {
    "compound": "C[C@]12OC(=O)[C@]3(O)CC[C@H]4[C@@H](C[C@@H](O)[C@@]5(Cl)CC=CC(=O)[C@]45C)[C@]45OCC6C(=O)O[C@@H]1C[C@@]6(C)[C@H](C4=O)[C@@]32O5 (some centres undefined)",
    "class-name": "label 0"
  },
  {
    "compound": "COC1C(O)C(C)OC(OC2C(Oc3cccc4c(O)c5c(=O)oc6ccc(C)c7c(=O)oc(c34)c5c67)OC(C)C3O[C@H](c4ccccc4)OC32)C1O (some centres undefined)",
    "class-name": "label 1"
  },
  {
    "compound": "FC(F)(F)c1nc(-c2ccccc2)oc1Sc1nnc(Sc2oc(-c3ccccc3)nc2C(F)(F)F)s1",
    "class-name": "label 0"
  },
  {
    "compound": "CC(=O)OC1CC2Oc3ccc(C)cc3C(C)(O2)C1=O (centres undefined)",
    "class-name": "label 0"
  },
  {
    "compound": "CC12CCc3ccccc3C1=Nc1ccccc12 (centres undefined)",
    "class-name": "label 0"
  },
  {
    "compound": "COC(=O)CN1SC2(SC13C(C)(C)C(=O)C3(C)C)C(C)(C)C(=O)C2(C)C",
    "class-name": "label 0"
  },
  {
    "compound": "Cc1c2c(c(O)c3c(O)cccc13)C(=O)C1(O)C(=O)C(C(=O)NCNc3ccc(C(N)=O)cn3)=C(O)C(N(C)C)C1C2 (centres undefined)",
    "class-name": "label 0"
  },
  {
    "compound": "Cc1ccc2c(c1)NC(=O)C(N=[N+]=[N-])(c1ccccc1)C2=O (centres undefined)",
    "class-name": "label 0"
  },
  {
    "compound": "C[C@]12CC[C@H](O)CC1=CC[C@@H]1[C@@H]2CC[C@]2(C)C(=N/O)/C(=C/c3ccc([N+](=O)[O-])cc3)C[C@@H]12",
    "class-name": "label 1"
  },
  {
    "compound": "CC(C)(C)c1cc(OCc2nnc3sc(Cc4ccccc4)nn23)c(Cl)cc1OCc1nnc2sc(Cc3ccccc3)nn12",
    "class-name": "label 0"
  },
  {
    "compound": "COc1cccc(/C(Cl)=C(\\C=O)c2cccc(OC)c2)c1",
    "class-name": "label 0"
  },
  {
    "compound": "CCC(CC)C(=O)OC[n+]1cccc(-c2c(COC(=O)NC(C)C)c(COC(=O)NC(C)C)c3n2CCC3)c1",
    "class-name": "label 0"
  }
]

---

System: SW-620
Assay: NCI tumour cell line growth inhibition, 48 h
Calls of active or inactive are those of the source. Rule as the data show it: active = GI50 up to about 1.1 µM and inactive = higher.
Possible outcomes: active, inactive

[
  {
    "compound": "CC(C)C(=O)Oc1cc2c(=O)oc3c(OC(=O)C(C)C)c(OC(=O)C(C)C)cc4c(=O)oc(c1OC(=O)C(C)C)c2c34",
    "assay-system": "SW-620",
    "class-name": "inactive"
  },
  {
    "compound": "C[C@]12OC(=O)[C@]3(O)CC[C@H]4[C@@H](C[C@@H](O)[C@@]5(Cl)CC=CC(=O)[C@]45C)[C@]45OCC6C(=O)O[C@@H]1C[C@@]6(C)[C@H](C4=O)[C@@]32O5 (stereo partly specified)",
    "assay-system": "SW-620",
    "class-name": "active"
  },
  {
    "compound": "O[C@H]1[C@H]2[C@H](O)C[C@H](CCOCc3ccccc3)CN2C[C@H]1O",
    "assay-system": "SW-620",
    "class-name": "inactive"
  },
  {
    "compound": "OCC12C3C4C5C3C1C5C42 (stereo unspecified)",
    "assay-system": "SW-620",
    "class-name": "inactive"
  },
  {
    "compound": "Nc1nc2c(C(=O)NCc3cccs3)nnn2c2cccc(Cl)c12",
    "assay-system": "SW-620",
    "class-name": "inactive"
  },
  {
    "compound": "COc1c(O)c2ccccc2c2cc(O)ccc12",
    "assay-system": "SW-620",
    "class-name": "inactive"
  },
  {
    "compound": "COC(=O)C1=C(C(=O)OC)N(c2ccncc2)C(c2ccco2)=CC1c1ccccc1[N+](=O)[O-] (stereo unspecified)",
    "assay-system": "SW-620",
    "class-name": "inactive"
  },
  {
    "compound": "OC[C@H]1C[C@@H]2Cc3ccccc3N2N1",
    "assay-system": "SW-620",
    "class-name": "inactive"
  },
  {
    "compound": "O=c1/c(=C/c2ccccc2[N+](=O)[O-])sc2nnc(-c3ccco3)n12",
    "assay-system": "SW-620",
    "class-name": "inactive"
  },
  {
    "compound": "N#Cc1ccc(Oc2nc3ccccc3nc2C(=O)O)cc1",
    "assay-system": "SW-620",
    "class-name": "inactive"
  },
  {
    "compound": "CCOP(=O)(OCC)/C(C#N)=C/c1ncc[nH]1",
    "assay-system": "SW-620",
    "class-name": "inactive"
  },
  {
    "compound": "CNC(=O)Nc1ccccc1",
    "assay-system": "SW-620",
    "class-name": "inactive"
  },
  {
    "compound": "COC(=O)[C@@]1(NC(=O)C(CC(=O)OC(C)(C)C)NC(=O)OC(C)(C)C)C[C@H]1C (stereo partly specified)",
    "assay-system": "SW-620",
    "class-name": "inactive"
  },
  {
    "compound": "NCCCNCCCCN1CC1",
    "assay-system": "SW-620",
    "class-name": "inactive"
  },
  {
    "compound": "CC1=C2CCCC2C/C(=N/Nc2ccc([N+](=O)[O-])cc2[N+](=O)[O-])CC1 (stereo unspecified)",
    "assay-system": "SW-620",
    "class-name": "inactive"
  },
  {
    "compound": "C=CCCN1CCc2c([nH]c3ccccc23)C1C(=O)O (stereo unspecified)",
    "assay-system": "SW-620",
    "class-name": "inactive"
  },
  {
    "compound": "CNC(=O)/C(C#N)=C(\\N)N1CCCC1",
    "assay-system": "SW-620",
    "class-name": "inactive"
  },
  {
    "compound": "N#Cc1cc2c(cc1C#N)SCCSCCCSCCS2",
    "assay-system": "SW-620",
    "class-name": "inactive"
  },
  {
    "compound": "Cn1cnc([N+](=O)[O-])c1Sc1nc(N)nc2c1ncn2C1OC(CO)C(O)C1O (stereo unspecified)",
    "assay-system": "SW-620",
    "class-name": "inactive"
  },
  {
    "compound": "CC1CC/C(=C\\c2ccc(N(C)C)cc2)C2=C1C(c1ccc(N(C)C)cc1)NC(=S)N2 (stereo unspecified)",
    "assay-system": "SW-620",
    "class-name": "inactive"
  },
  {
    "compound": "CN(C)C(=O)NCCN1CCCCCc2ccccc21",
    "assay-system": "SW-620",
    "class-name": "inactive"
  },
  {
    "compound": "COc1c(C)c(O)c2c(c1C)OC(c1ccccc1)CC2=O (stereo unspecified)",
    "assay-system": "SW-620",
    "class-name": "inactive"
  },
  {
    "compound": "CCC(C)C(=O)OCC(=O)c1ccc(-c2ccccc2)cc1 (stereo unspecified)",
    "assay-system": "SW-620",
    "class-name": "inactive"
  },
  {
    "compound": "O=C1N=C(S)NNC12c1ccccc1-c1ccccc12",
    "assay-system": "SW-620",
    "class-name": "inactive"
  },
  {
    "compound": "COc1ccc(S(=O)(=O)O)cc1NS(=O)(=O)c1ccc(C)cc1",
    "assay-system": "SW-620",
    "class-name": "inactive"
  },
  {
    "compound": "Nc1nc(O)c2nc(CNc3ccc(C(=O)NC(CCC(=O)O)C(=O)O)cc3)cnc2n1 (stereo unspecified)",
    "assay-system": "SW-620",
    "class-name": "inactive"
  }
]
